Data origin: patent US10093683B2

molecular target: Human plasma kallikrein (Homo sapiens (Human), UniProt P03952); assay: Kallikrein Assay; details: purified Human plasma kallikrein 0.5 nM, Acetyl-K-P-R-AFC, pH 7.4; Ki from IC50 by Cheng Prusoff
Sequence (P03952 391-638): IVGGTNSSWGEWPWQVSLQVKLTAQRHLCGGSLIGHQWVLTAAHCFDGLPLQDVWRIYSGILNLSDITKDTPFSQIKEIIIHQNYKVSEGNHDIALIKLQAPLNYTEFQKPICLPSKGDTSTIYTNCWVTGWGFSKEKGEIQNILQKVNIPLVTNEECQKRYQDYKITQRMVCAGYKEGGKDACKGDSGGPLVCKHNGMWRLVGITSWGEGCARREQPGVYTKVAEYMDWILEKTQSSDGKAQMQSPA
Sequence (P03952 20-390 partner): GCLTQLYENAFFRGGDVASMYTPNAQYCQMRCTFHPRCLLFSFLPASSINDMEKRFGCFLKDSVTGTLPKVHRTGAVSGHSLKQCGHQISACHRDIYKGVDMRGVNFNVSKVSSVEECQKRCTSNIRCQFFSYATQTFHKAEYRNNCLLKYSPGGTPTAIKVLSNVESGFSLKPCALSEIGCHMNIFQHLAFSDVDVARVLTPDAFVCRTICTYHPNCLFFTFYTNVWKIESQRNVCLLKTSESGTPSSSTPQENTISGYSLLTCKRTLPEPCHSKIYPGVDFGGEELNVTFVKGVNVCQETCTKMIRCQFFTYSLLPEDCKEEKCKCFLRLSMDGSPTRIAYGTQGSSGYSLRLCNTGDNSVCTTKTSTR
readoutType: Ki (nM)

(I) O=C(Nc1ccc(C(=O)N[C@@H](Cc2cccc(F)c2)C(=O)N2CCC[C@@]3(C2)OC(=O)Nc2ccc(Cl)c(F)c23)cc1)OCCP(=O)(O)O [Example 271]
(II) Nc1n[nH]c2cc(C(=O)N[C@@H](Cc3ccncc3)C(=O)N3CC[C@@]4(C3)OC(=O)Nc3ccc(Cl)cc34)ccc12 [Example 258]
Endpoint returns whichever of I and II has the numerically higher Ki. Your answer should be the label attached to the chosen record.
II
(II: 4.08 nM, I: 0.6 nM)

(1) COC(=O)Nc1ccc(C(=O)N[C@@H](Cc2ccc(-c3cnn(C)c3)cc2)C(=O)N2CC[C@@]3(C2)OC(=O)Nc2ccc(Cl)cc23)cc1 [Example 83]
(2) O=C1Nc2ccc(Cl)c(F)c2[C@@]2(CCCN(C(=O)[C@H](Cc3ccc(F)cc3)NC(=O)c3cc(F)c(C(=O)C(=O)O)s3)C2)O1 [Example 267]
Given the two records 1 and 2 , choose the one whose Ki value is lower. State your choice using its label.
2
